- SYSTEM_TESTED: T1, in vitro misfolded/aggregated human SOD1 (metal-catalyzed oxidation) (human, UniProt P00441 2-154, oxidized by metal-catalyzed oxidation (4 mM ascorbic acid, 0.2 mM CuCl2, 48 hours at 37 C); residues not stated)
- T1 construct: also called Oxidized SOD1; in vitro aggregated human SOD1 dimers
- PROTOCOL_SUMMARY: direct ELISA, oxidized human SOD1 coated at 20 µg/ml
MEASURE: EC50 (nM)
Quick reminder: number only, in nM, skip the unit.

// worked examples, EC50 included
NI-204.11F11 (antibody, human IgG1, V domains shown) VH: EVQLVESGGGLVKPGGSLRLSCAASGLPFSKAWMSWVRQAPGKGLEWVGRIKSQADGGAIDYATSVNGRFTITRDDSKNTLYLQMTSLKTEDTAVYYCTPGIILRFLEGTLRGMDVWGQGTTVTVSS VL: EIVLTQSPPTLSLSPGERATLSCRASQTVSKYLAWYQQKPGQAPRLLVYDTSNRAIGIPPRFSGSGSGTDFTLTISTLEPEDFALYYCQQRSNWPPTFGQGTRLEIK : 0.4
NI-204.10D12 (antibody, V domains shown) VH: EVQLVESGGDLVRPGGSLRLSCVASGFTFSNYWMHWVRQAPGQRPVWVSRTNTDGRNTAYADYAKGRFTISRDNAKSTLYLQLNSLRAEDTAVYFCARLRRNVADQITHNYYMDVWGKGTLVTVSS VL: EIVLTQSPGSLAVSLGERATINCKSSQTVLYNNKNYLAWYQQKPGQPPKLLISWASSRESGVPDRFSGSGSGTDFTLTISSLQAEDVAVYYCQHYYGTPVTFGGGTKVEIK : 6
NI-204.25H3 (antibody, human IgG1, V domains shown) VH: QVQLQESGPGLVKPSETLSLTCTVSGGSISSSYWSWIRQPPGQGLEWIGYIYYSGNTYYNPSLKSRVTISIDTSKTQFSLNLTSVSAADTAVYYCARDGIPGAIGMDVWGQGTTVTVSS VL: QSVLTQPPSVSAAPGQKVNISCSGSSSNIGNNYVSWYQRLPGTAPKLLIYDNNKRPSGIPDRFSGSKSGTSATLGITGLQTGDGADYYCATWDKSLIAVVFGGGTKLTVL : 2

Now, please, on to the next binder.
Give recorded EC50. NI-204.6H1 (antibody, human IgG1, V domains shown) VH: QVQLQQWGAGRLRPSETLSLTCAVYGGSFNGYARTWIRQPPGKGLEWIGEIDHRENTNYNPSLKSRVTMSVDTSKNQFSLRLNSVTAADTAVYFCARGQKNAKDQHEGFRYWGRGTLVTVSS VL: SYELTQPPSVSVSPGQTARITCSGDALPKQFAYWYQQKSGQAPKLVIFKDTERPSGIPERFSASSSGTKATLTISGVQAEDEADYYCQSADRTATSWVFGGGTKLTVL 4
